tested on: Pichia kudriavzevii; test: Antifungal activity against Candida krusei E28 after 24 hrs by broth microdilution method; type: functional; settings: E28, 24 h
MIC80 reference
quantity_kind: MIC80

molecule	test_target	quantity_kind	measured_value
CCOP(=O)(OCC)Oc1cc(Cl)ccc1C(=O)Nc1cccc(C(F)(F)F)c1	Pichia kudriavzevii	MIC80	> 500 µM
CCOP(=O)(OCC)Oc1ccc(Br)cc1C(=O)Nc1cccc(C(F)(F)F)c1	Pichia kudriavzevii	MIC80	> 500 µM
CCOP(=O)(OCC)Oc1ccc(Cl)cc1C(=O)Nc1cccc(Br)c1	Pichia kudriavzevii	MIC80	> 500 µM
CCOP(=O)(OCC)Oc1cc(Cl)ccc1C(=O)Nc1ccc(Cl)cc1	Pichia kudriavzevii	MIC80	> 500 µM
CCOP(=O)(OCC)Oc1cc(Cl)ccc1C(=O)Nc1cccc(Br)c1	Pichia kudriavzevii	MIC80	> 500 µM
CCOP(=O)(OCC)Oc1ccc(Br)cc1C(=O)Nc1cccc(Br)c1	Pichia kudriavzevii	MIC80	> 500 µM
CCOP(=O)(OCC)Oc1ccc(Br)cc1C(=O)Nc1ccc(Br)cc1	Pichia kudriavzevii	MIC80	125 µM
OC(Cn1cncn1)(Cn1cncn1)c1ccc(F)cc1F [FLUCONAZOLE]	Pichia kudriavzevii	MIC80	> 50 µM
CCOP(=O)(OCC)Oc1ccc(Cl)cc1C(=O)Nc1ccc(F)cc1	Pichia kudriavzevii	MIC80	> 500 µM
CCOP(=O)(OCC)Oc1ccc(Br)cc1C(=O)Nc1cccc(Cl)c1	Pichia kudriavzevii	MIC80	31.2 µM
CCOP(=O)(OCC)Oc1ccc(Cl)cc1C(=O)Nc1ccc(C(F)(F)F)cc1	Pichia kudriavzevii	MIC80	125 µM
CCOP(=O)(OCC)Oc1cc(Cl)ccc1C(=O)Nc1ccc(F)cc1	Pichia kudriavzevii	MIC80	> 500 µM
CCOP(=O)(OCC)Oc1cc(Cl)ccc1C(=O)Nc1ccc(C(F)(F)F)cc1	Pichia kudriavzevii	MIC80	> 500 µM
CCOP(=O)(OCC)Oc1ccc(Br)cc1C(=O)Nc1ccc(F)cc1	Pichia kudriavzevii	MIC80	> 500 µM
CCOP(=O)(OCC)Oc1ccc(Br)cc1C(=O)Nc1ccc(Cl)cc1	Pichia kudriavzevii	MIC80	> 500 µM
CCOP(=O)(OCC)Oc1ccc(Cl)cc1C(=O)Nc1cccc(C(F)(F)F)c1	Pichia kudriavzevii	MIC80	> 500 µM
CCOP(=O)(OCC)Oc1ccc(Cl)cc1C(=O)Nc1ccc(Br)cc1	Pichia kudriavzevii	MIC80	> 500 µM
CCOP(=O)(OCC)Oc1ccc(Br)cc1C(=O)Nc1cccc(F)c1	Pichia kudriavzevii	MIC80	> 500 µM
CCOP(=O)(OCC)Oc1ccc(Br)cc1C(=O)Nc1ccc(Cl)c(Cl)c1	Pichia kudriavzevii	MIC80	> 500 µM
CCOP(=O)(OCC)Oc1ccc(Cl)cc1C(=O)Nc1ccc(Cl)c(Cl)c1	Pichia kudriavzevii	MIC80	> 500 µM
CCOP(=O)(OCC)Oc1ccc(Cl)cc1C(=O)Nc1cccc(F)c1	Pichia kudriavzevii	MIC80	> 500 µM
CCOP(=O)(OCC)Oc1ccc(Cl)cc1C(=O)Nc1cccc(Cl)c1	Pichia kudriavzevii	MIC80	> 500 µM

###

log10 of MIC95 reference
system: Staphylococcus epidermidis; test: Antibacterial activity against Staphylococcus epidermidis H 6966/08 after 24 hrs by broth microdilution method; assay type: functional; conditions: H 6966/08, 24 h
quantity_kind: log10 of MIC95 (log10 of the value in µM)

item_smiles	log10 of MIC95
CCOP(=O)(OCC)Oc1ccc(Br)cc1C(=O)Nc1cccc(C(F)(F)F)c1	0.89
CCOP(=O)(OCC)Oc1ccc(Cl)cc1C(=O)Nc1cccc(F)c1	2.40
CCOP(=O)(OCC)Oc1cc(Cl)ccc1C(=O)Nc1cccc(Cl)c1	2.40
CCOP(=O)(OCC)Oc1cc(Cl)ccc1C(=O)Nc1ccc(C(F)(F)F)cc1	1.49
CCOP(=O)(OCC)Oc1cc(Cl)ccc1C(=O)Nc1cccc(Br)c1	2.10
CCOP(=O)(OCC)Oc1ccc(Br)cc1C(=O)Nc1cccc(F)c1	2.40
CCOP(=O)(OCC)Oc1ccc(Cl)cc1C(=O)Nc1ccc(C(F)(F)F)cc1	1.49
CCOP(=O)(OCC)Oc1ccc(Br)cc1C(=O)Nc1ccc(Cl)cc1	2.70
CCOP(=O)(OCC)Oc1ccc(Br)cc1C(=O)Nc1ccc(Cl)c(Cl)c1	2.70
CCOP(=O)(OCC)Oc1ccc(Cl)cc1C(=O)Nc1cccc(Cl)c1	2.10
CCOP(=O)(OCC)Oc1ccc(Br)cc1C(=O)Nc1ccc(Br)cc1	0.29
CCOP(=O)(OCC)Oc1cc(Cl)ccc1C(=O)Nc1cccc(F)c1	2.40
CCOP(=O)(OCC)Oc1ccc(Cl)cc1C(=O)Nc1ccc(Br)cc1	2.10
CCOP(=O)(OCC)Oc1ccc(Br)cc1C(=O)Nc1cccc(Br)c1	1.49
CCOP(=O)(OCC)Oc1ccc(Cl)cc1C(=O)Nc1cccc(C(F)(F)F)c1	2.40
CCOP(=O)(OCC)Oc1cc(Cl)ccc1C(=O)Nc1ccc(Cl)cc1	2.40

###

tested on: Staphylococcus epidermidis; test: Antibacterial activity against Staphylococcus epidermidis H 6966/08 after 24 hrs by broth microdilution method; assay type: functional; settings: H 6966/08, 24 h
MIC95 reference

item_smiles	measurement_qualifier	MIC95 [µM]
CCOP(=O)(OCC)Oc1ccc(Br)cc1C(=O)Nc1cccc(Cl)c1	=	125
CCOP(=O)(OCC)Oc1ccc(Cl)cc1C(=O)Nc1cccc(Br)c1	=	15.6
CCOP(=O)(OCC)Oc1ccc(Cl)cc1C(=O)Nc1ccc(Cl)cc1	=	125
CCOP(=O)(OCC)Oc1cc(Cl)ccc1C(=O)Nc1cccc(C(F)(F)F)c1	=	15.6
CC1(C)S[C@@H]2[C@H](NC(=O)Cc3ccccc3)C(=O)N2[C@H]1C(=O)O	=	250
CCOP(=O)(OCC)Oc1ccc(Cl)cc1C(=O)Nc1ccc(Cl)c(Cl)c1	>	500
CCOP(=O)(OCC)Oc1ccc(Br)cc1C(=O)Nc1ccc(F)cc1	>	500
CCOP(=O)(OCC)Oc1cc(Cl)ccc1C(=O)Nc1ccc(Cl)c(Cl)c1	=	250
CCOP(=O)(OCC)Oc1ccc(Br)cc1C(=O)Nc1ccc(C(F)(F)F)cc1	=	7.81
CCOP(=O)(OCC)Oc1cc(Cl)ccc1C(=O)Nc1ccc(F)cc1	>	500

###

tested on: Candida tropicalis; test: Antifungal activity against Candida tropicalis 156 at 500 micromol/L after 24 to 48 hrs by broth microdilution method; assay type: functional, organism-based
Active and inactive are the calls of the source. No cut-off for these calls is given here.
quantity_kind: Activity

item_smiles	measured_value
CCOP(=O)(OCC)Oc1ccc(Cl)cc1C(=O)Nc1ccc(C(F)(F)F)cc1	inactive
CCOP(=O)(OCC)Oc1ccc(Cl)cc1C(=O)Nc1cccc(Br)c1	inactive
CCOP(=O)(OCC)Oc1ccc(Br)cc1C(=O)Nc1cccc(Cl)c1	inactive
CCOP(=O)(OCC)Oc1ccc(Cl)cc1C(=O)Nc1cccc(C(F)(F)F)c1	inactive
CCOP(=O)(OCC)Oc1ccc(Cl)cc1C(=O)Nc1cccc(Cl)c1	inactive
CCOP(=O)(OCC)Oc1ccc(Br)cc1C(=O)Nc1ccc(Cl)c(Cl)c1	inactive
CCOP(=O)(OCC)Oc1ccc(Br)cc1C(=O)Nc1cccc(C(F)(F)F)c1	inactive
CCOP(=O)(OCC)Oc1ccc(Br)cc1C(=O)Nc1ccc(C(F)(F)F)cc1	inactive
CCOP(=O)(OCC)Oc1ccc(Cl)cc1C(=O)Nc1cccc(F)c1	inactive
CCOP(=O)(OCC)Oc1cc(Cl)ccc1C(=O)Nc1ccc(Cl)cc1	inactive
CCOP(=O)(OCC)Oc1cc(Cl)ccc1C(=O)Nc1cccc(Cl)c1	inactive
CCOP(=O)(OCC)Oc1ccc(Br)cc1C(=O)Nc1cccc(Br)c1	inactive
CCOP(=O)(OCC)Oc1ccc(Cl)cc1C(=O)Nc1ccc(Cl)c(Cl)c1	inactive
CCOP(=O)(OCC)Oc1cc(Cl)ccc1C(=O)Nc1cccc(C(F)(F)F)c1	inactive
CCOP(=O)(OCC)Oc1ccc(Br)cc1C(=O)Nc1cccc(F)c1	inactive
CCOP(=O)(OCC)Oc1ccc(Cl)cc1C(=O)Nc1ccc(F)cc1	inactive
CCOP(=O)(OCC)Oc1ccc(Br)cc1C(=O)Nc1ccc(Cl)cc1	inactive
CCOP(=O)(OCC)Oc1cc(Cl)ccc1C(=O)Nc1cccc(F)c1	inactive
CCOP(=O)(OCC)Oc1cc(Cl)ccc1C(=O)Nc1cccc(Br)c1	inactive
CCOP(=O)(OCC)Oc1ccc(Br)cc1C(=O)Nc1ccc(F)cc1	inactive
CCOP(=O)(OCC)Oc1cc(Cl)ccc1C(=O)Nc1ccc(C(F)(F)F)cc1	inactive
CCOP(=O)(OCC)Oc1cc(Cl)ccc1C(=O)Nc1ccc(Cl)c(Cl)c1	inactive

###

tested on: Mycobacterium kansasii; test: Antimycobacterial activity against Mycobacterium kansasii My 235/80 after 21 days; assay type: functional; settings: My 235/80, 504 h

item_smiles	MIC
CCOP(=O)(OCC)Oc1ccc(Br)cc1C(=O)Nc1cccc(Cl)c1	8 µM
CCOP(=O)(OCC)Oc1cc(Cl)ccc1C(=O)Nc1ccc(F)cc1	16 µM
CCOP(=O)(OCC)Oc1cc(Cl)ccc1C(=O)Nc1cccc(Br)c1	8 µM
CCOP(=O)(OCC)Oc1ccc(Cl)cc1C(=O)Nc1ccc(Cl)c(Cl)c1	4 µM
CCOP(=O)(OCC)Oc1ccc(Cl)cc1C(=O)Nc1cccc(Cl)c1	8 µM
NNC(=O)c1ccncc1	> 250 µM
CCOP(=O)(OCC)Oc1ccc(Cl)cc1C(=O)Nc1cccc(F)c1	32 µM
CCOP(=O)(OCC)Oc1ccc(Br)cc1C(=O)Nc1ccc(Br)cc1	4 µM
CCOP(=O)(OCC)Oc1cc(Cl)ccc1C(=O)Nc1cccc(F)c1	16 µM
CCOP(=O)(OCC)Oc1ccc(Br)cc1C(=O)Nc1ccc(F)cc1	16 µM
CCOP(=O)(OCC)Oc1ccc(Cl)cc1C(=O)Nc1cccc(C(F)(F)F)c1	8 µM
CCOP(=O)(OCC)Oc1ccc(Br)cc1C(=O)Nc1cccc(C(F)(F)F)c1	8 µM
CCOP(=O)(OCC)Oc1ccc(Br)cc1C(=O)Nc1ccc(C(F)(F)F)cc1	2 µM
CCOP(=O)(OCC)Oc1cc(Cl)ccc1C(=O)Nc1ccc(Cl)cc1	8 µM
CCOP(=O)(OCC)Oc1ccc(Cl)cc1C(=O)Nc1ccc(Br)cc1	8 µM
CCOP(=O)(OCC)Oc1ccc(Br)cc1C(=O)Nc1ccc(Cl)c(Cl)c1	4 µM
CCOP(=O)(OCC)Oc1ccc(Br)cc1C(=O)Nc1cccc(Br)c1	8 µM
CCOP(=O)(OCC)Oc1cc(Cl)ccc1C(=O)Nc1ccc(Cl)c(Cl)c1	4 µM
CCOP(=O)(OCC)Oc1ccc(Cl)cc1C(=O)Nc1ccc(Cl)cc1	8 µM
CCOP(=O)(OCC)Oc1cc(Cl)ccc1C(=O)Nc1ccc(C(F)(F)F)cc1	1 µM
CCOP(=O)(OCC)Oc1ccc(Br)cc1C(=O)Nc1cccc(F)c1	16 µM
CCOP(=O)(OCC)Oc1ccc(Cl)cc1C(=O)Nc1ccc(F)cc1	32 µM
CCOP(=O)(OCC)Oc1cc(Cl)ccc1C(=O)Nc1cccc(Cl)c1	8 µM
CCOP(=O)(OCC)Oc1ccc(Br)cc1C(=O)Nc1ccc(Cl)cc1	8 µM
CCOP(=O)(OCC)Oc1cc(Cl)ccc1C(=O)Nc1cccc(C(F)(F)F)c1	4 µM
CCOP(=O)(OCC)Oc1ccc(Cl)cc1C(=O)Nc1ccc(C(F)(F)F)cc1	2 µM
Nc1ccc(C(=O)O)c(O)c1	> 1000 µM
CCOP(=O)(OCC)Oc1ccc(Cl)cc1C(=O)Nc1cccc(Br)c1	8 µM
